- SYSTEM_NAME: UniProtKB O95271
- Sequence (O95271 whole entry): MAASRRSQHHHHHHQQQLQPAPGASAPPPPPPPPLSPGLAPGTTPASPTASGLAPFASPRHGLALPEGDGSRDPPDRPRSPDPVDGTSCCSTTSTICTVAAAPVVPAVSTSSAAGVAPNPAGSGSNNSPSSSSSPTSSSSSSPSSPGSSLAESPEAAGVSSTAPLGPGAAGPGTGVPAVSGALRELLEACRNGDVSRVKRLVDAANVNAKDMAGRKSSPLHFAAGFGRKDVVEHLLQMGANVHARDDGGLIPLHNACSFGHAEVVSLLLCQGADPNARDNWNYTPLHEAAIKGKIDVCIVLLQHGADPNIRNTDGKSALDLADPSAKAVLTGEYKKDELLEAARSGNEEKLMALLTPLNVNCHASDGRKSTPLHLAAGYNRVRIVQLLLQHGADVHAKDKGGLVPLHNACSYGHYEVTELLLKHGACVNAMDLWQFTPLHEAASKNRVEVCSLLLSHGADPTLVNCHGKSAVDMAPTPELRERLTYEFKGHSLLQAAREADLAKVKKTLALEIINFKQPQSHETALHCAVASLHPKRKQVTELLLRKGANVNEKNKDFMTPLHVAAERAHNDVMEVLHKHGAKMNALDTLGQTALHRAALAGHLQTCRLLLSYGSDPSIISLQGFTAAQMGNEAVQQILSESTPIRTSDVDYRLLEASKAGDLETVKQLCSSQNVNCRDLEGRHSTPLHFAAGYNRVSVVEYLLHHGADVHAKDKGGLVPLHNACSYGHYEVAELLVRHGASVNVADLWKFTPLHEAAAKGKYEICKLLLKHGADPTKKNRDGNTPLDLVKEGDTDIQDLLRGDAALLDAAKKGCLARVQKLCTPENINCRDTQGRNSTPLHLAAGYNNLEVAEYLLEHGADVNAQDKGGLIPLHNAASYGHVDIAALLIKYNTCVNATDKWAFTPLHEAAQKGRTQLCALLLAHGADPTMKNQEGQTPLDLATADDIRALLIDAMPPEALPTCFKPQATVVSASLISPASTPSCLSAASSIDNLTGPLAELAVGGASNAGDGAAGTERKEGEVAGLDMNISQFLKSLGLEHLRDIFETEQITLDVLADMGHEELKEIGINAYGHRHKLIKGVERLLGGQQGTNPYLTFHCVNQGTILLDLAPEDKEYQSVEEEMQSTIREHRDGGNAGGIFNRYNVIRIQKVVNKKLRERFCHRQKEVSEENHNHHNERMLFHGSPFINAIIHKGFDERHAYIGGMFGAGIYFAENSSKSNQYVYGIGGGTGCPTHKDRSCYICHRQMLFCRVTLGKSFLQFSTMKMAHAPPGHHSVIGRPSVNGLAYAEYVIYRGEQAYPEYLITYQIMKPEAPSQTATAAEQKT
- EXPERIMENT_NOTES: TNKS1 Assay 1 (TNKS1 Histone Ribosylation Assay Kit, biotin-labeled NAD+)
- Assay type: biochemical
- PARTICULARS: chemiluminescent readout, 384 well, first table
log10(IC50) values by entry
TEST_READOUT: log10(IC50) (log10 of the value in nM)

{"MOLECULE": "CCC(C)NC(=O)c1ncoc1C(=O)Nc1ccc(NC(=O)c2ccc(F)cc2Cl)cc1 (centres unmarked)", "log10(IC50)": 3.11}
{"MOLECULE": "CC(C)NC(=O)c1ncoc1C(=O)Nc1ccc(NC(=O)c2ccc(F)cc2Cl)cc1", "log10(IC50)": 2.95}
{"MOLECULE": "CNC(=O)c1nc[nH]c1C(=O)Nc1ccc(NC(=O)c2ccccc2C)cc1", "log10(IC50)": 3.23}
{"MOLECULE": "O=C(Nc1ccc(NC(=O)c2[nH]cnc2C(=O)NCC(F)(F)F)cc1)c1ccc(F)cc1Cl", "log10(IC50)": 2.15}
{"MOLECULE": "COC(=O)c1ncoc1C(=O)Nc1ccc(NC(=O)c2ccc(F)cc2Cl)cc1", "log10(IC50)": 2.62}
{"MOLECULE": "CNC(=O)c1nc[nH]c1C(=O)Nc1ccc(NC(=O)c2ccc(N(C)C)cc2Cl)cc1", "log10(IC50)": 2.08}
{"MOLECULE": "CNC(=O)c1nc[nH]c1C(=O)Nc1ccc(NC(=O)c2ccc(F)cc2Cl)cc1", "log10(IC50)": 1.30}

* * *

- Test system: wildtype Wnt signaling cascade
- EXPERIMENT_NOTES: HEK293 TOP Assay (Super TopFlash luciferase reporter, Wnt-3a stimulated)
- Assay type: cell-based
- PARTICULARS: HEK293 TOP reporter cell line, Wnt-3a at EC50, 16 hours incubation, compound dilution series 50 μM to 15 nM
pIC50: −log10 of the molar value.
pIC50 values by entry
TEST_READOUT: pIC50

{"MOLECULE": "CC(CN1CCOCC1)NC(=O)c1[nH]cnc1C(=O)Nc1ccc(NC(=O)c2ccc(F)cc2)cc1 (single isomer, unassigned; enantiomer 1) [Example 295]", "RECORDED_MEASUREMENT": 6.16}
{"MOLECULE": "CC(CN1CCOCC1)NC(=O)c1[nH]cnc1C(=O)Nc1ccc(NC(=O)c2ccc(F)cc2Cl)cc1 (single isomer, unassigned; enantiomer 1) [Example 269]", "RECORDED_MEASUREMENT": 6.36}
{"MOLECULE": "CC(CN1CCOCC1)NC(=O)c1[nH]cnc1C(=O)Nc1ccc(NC(=O)c2ccc(F)cc2Cl)cc1 (single isomer, unassigned; enantiomer 2) [Example 270]", "RECORDED_MEASUREMENT": 7.40}
{"MOLECULE": "CC(CN1CCOCC1)NC(=O)c1[nH]cnc1C(=O)Nc1ccc(NC(=O)c2ccc(F)cc2)cc1 (single isomer, unassigned; enantiomer 2) [Example 296]", "RECORDED_MEASUREMENT": 5.19}

* * *

pIC50 values by entry
- SYSTEM_NAME: TNKS2 (Homo sapiens, UniProt Q9H2K2)
- Sequence (Q9H2K2 whole entry): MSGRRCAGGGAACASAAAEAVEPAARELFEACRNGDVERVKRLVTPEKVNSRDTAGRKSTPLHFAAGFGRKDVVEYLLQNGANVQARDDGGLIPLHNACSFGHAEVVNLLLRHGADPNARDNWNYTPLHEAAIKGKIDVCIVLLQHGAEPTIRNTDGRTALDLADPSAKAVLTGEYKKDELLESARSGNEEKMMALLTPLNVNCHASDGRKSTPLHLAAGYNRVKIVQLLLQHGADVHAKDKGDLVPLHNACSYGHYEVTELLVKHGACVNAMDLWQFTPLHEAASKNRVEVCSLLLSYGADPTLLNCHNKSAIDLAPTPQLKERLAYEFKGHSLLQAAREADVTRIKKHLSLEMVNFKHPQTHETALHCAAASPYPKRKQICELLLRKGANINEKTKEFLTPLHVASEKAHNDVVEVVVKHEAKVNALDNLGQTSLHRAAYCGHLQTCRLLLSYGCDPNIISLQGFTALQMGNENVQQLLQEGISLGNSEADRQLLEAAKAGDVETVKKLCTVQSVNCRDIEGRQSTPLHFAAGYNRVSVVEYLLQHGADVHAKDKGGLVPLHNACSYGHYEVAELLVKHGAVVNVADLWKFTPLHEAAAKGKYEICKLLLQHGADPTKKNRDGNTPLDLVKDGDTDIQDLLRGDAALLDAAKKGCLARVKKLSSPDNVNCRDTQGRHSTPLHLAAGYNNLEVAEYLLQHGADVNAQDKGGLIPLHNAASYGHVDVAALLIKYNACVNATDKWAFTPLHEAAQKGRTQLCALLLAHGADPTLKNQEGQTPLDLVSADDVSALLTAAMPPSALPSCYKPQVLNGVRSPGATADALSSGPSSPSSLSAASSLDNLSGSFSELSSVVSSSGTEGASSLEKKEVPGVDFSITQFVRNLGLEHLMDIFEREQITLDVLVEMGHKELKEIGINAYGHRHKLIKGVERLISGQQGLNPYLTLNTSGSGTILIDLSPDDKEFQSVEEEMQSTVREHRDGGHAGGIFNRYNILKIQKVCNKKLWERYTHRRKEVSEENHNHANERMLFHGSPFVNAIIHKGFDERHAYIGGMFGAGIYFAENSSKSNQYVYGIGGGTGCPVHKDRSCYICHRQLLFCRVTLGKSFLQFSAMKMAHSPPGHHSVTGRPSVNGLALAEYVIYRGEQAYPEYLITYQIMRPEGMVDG
- EXPERIMENT_NOTES: Modified TNKS2 Assay 2 (auto-parsylation, [3H]-NAD+ SPA)
- Type: biochemical
- PARTICULARS: 6 nM TNKS2, 96 well
pIC50: −log10 of the molar value.
TEST_READOUT: pIC50

{"COMPOUND": "CNC(=O)c1nc[nH]c1C(=O)Nc1ccc(NC(=O)c2ncccc2C)cc1 [Example 356]", "RECORDED_MEASUREMENT": 6.03}
{"COMPOUND": "CC(C)NC(=O)c1nc[nH]c1C(=O)Nc1ccc(NC(=O)c2ccc(F)cc2Cl)cc1 [Example 10]", "RECORDED_MEASUREMENT": 6.46}
{"COMPOUND": "CNC(=O)c1nc[nH]c1C(=O)Nc1ccc(NC(=O)c2ccc(F)cc2I)cc1 [Example 61]", "RECORDED_MEASUREMENT": 7.22}
{"COMPOUND": "CC(C)(C)CNC(=O)c1[nH]cnc1C(=O)Nc1ccc(NC(=O)c2ccccc2Cl)cc1 [Example 148]", "RECORDED_MEASUREMENT": 5.96}

* * *

- SYSTEM_NAME: TNKS2 (Homo sapiens, UniProt Q9H2K2)
- EXPERIMENT_NOTES: Modified TNKS2 Assay 2 (auto-parsylation, [3H]-NAD+ SPA)
- Type: biochemical
- PARTICULARS: 6 nM TNKS2, 96 well
pIC50: −log10 of the molar value.
pIC50 values by entry
TEST_READOUT: pIC50

{"COMPOUND": "CNC(=O)c1nc[nH]c1C(=O)Nc1ccc(NC(=O)c2ccc(N(C)C)cc2Cl)cc1 [Example 4]", "SYSTEM_NAME": "TNKS2 (Homo sapiens, UniProt Q9H2K2)", "LT_GT_EQ": "<", "RECORDED_MEASUREMENT": 5.00}
{"COMPOUND": "CCNC(=O)c1nc[nH]c1C(=O)Nc1ccc(NC(=O)c2ccc(OC(F)F)cc2F)cc1 [Example 258]", "SYSTEM_NAME": "TNKS2 (Homo sapiens, UniProt Q9H2K2)", "LT_GT_EQ": "<", "RECORDED_MEASUREMENT": 5.00}
{"COMPOUND": "CNC(=O)c1nc[nH]c1C(=O)Nc1ccc(NC(=O)c2nccnc2Cl)cc1 [Example 372]", "SYSTEM_NAME": "TNKS2 (Homo sapiens, UniProt Q9H2K2)", "LT_GT_EQ": "=", "RECORDED_MEASUREMENT": 5.32}
{"COMPOUND": "CNC(=O)c1nc[nH]c1C(=O)Nc1ccc(NC(=O)c2cc(F)c(F)cc2Cl)cc1 [Example 242]", "SYSTEM_NAME": "TNKS2 (Homo sapiens, UniProt Q9H2K2)", "LT_GT_EQ": "=", "RECORDED_MEASUREMENT": 7.52}
{"COMPOUND": "NCCNC(=O)c1[nH]cnc1C(=O)Nc1ccc(NC(=O)c2ccc(F)cc2Cl)cc1 [Example 290]", "SYSTEM_NAME": "TNKS2 (Homo sapiens, UniProt Q9H2K2)", "LT_GT_EQ": "=", "RECORDED_MEASUREMENT": 6.96}
{"COMPOUND": "O=C(Nc1ccc(NC(=O)c2[nH]cnc2C(=O)NCCc2cccnc2)cc1)c1ccc(F)cc1Cl [Example 405]", "SYSTEM_NAME": "TNKS2 (Homo sapiens, UniProt Q9H2K2)", "LT_GT_EQ": "=", "RECORDED_MEASUREMENT": 7.00}
{"COMPOUND": "O=C(Nc1ccc(NC(=O)c2nc[nH]c2C(=O)NC2CC2)cc1)c1ccc(F)cc1 [Example 131]", "SYSTEM_NAME": "TNKS2 (Homo sapiens, UniProt Q9H2K2)", "LT_GT_EQ": "<", "RECORDED_MEASUREMENT": 5.00}
{"COMPOUND": "O=C(Nc1ccc(NC(=O)c2nc[nH]c2C(=O)NCCN2CCC2)cc1)c1ccc(F)cc1 [Example 199]", "SYSTEM_NAME": "TNKS2 (Homo sapiens, UniProt Q9H2K2)", "LT_GT_EQ": "=", "RECORDED_MEASUREMENT": 6.89}

* * *

- SYSTEM_NAME: UniProt:Q9H2K2
- EXPERIMENT_NOTES: Modified TNKS2 Assay 2 (auto-parsylation, [3H]-NAD+ SPA)
- Assay type: biochemical
- PARTICULARS: 6 nM TNKS2, 96 well
pIC50: −log10 of the molar value.
Please enter rule met where pIC50 is greater than or equal to 7, and rule not met where it is lower.

{"COMPOUND": "CNC(=O)c1nc[nH]c1C(=O)Nc1ccc(NC(=O)c2ccc(F)cc2)cc1 [Example 20]", "CLASS_NAME": "rule not met"}
{"COMPOUND": "CS(=O)(=O)c1ccc(C(=O)Nc2ccc(NC(=O)c3[nH]cnc3C(=O)NCCN3CCCCC3)cc2)c(Cl)c1 [Example 53]", "CLASS_NAME": "rule met"}
{"COMPOUND": "CNC(=O)c1nc[nH]c1C(=O)Nc1ccc(NC(=O)c2cc(C(F)(F)F)ccc2Cl)cc1 [Example 352]", "CLASS_NAME": "rule not met"}
{"COMPOUND": "CNC(=O)c1nc[nH]c1C(=O)Nc1ccc(NC(=O)c2cc(OC)c(OC)cc2Cl)cc1 [Example 240]", "CLASS_NAME": "rule met"}
{"COMPOUND": "CC(C)(CN1CCCCC1)NC(=O)c1[nH]cnc1C(=O)Nc1ccc(NC(=O)c2ccc(F)cc2Cl)cc1 [Example 184]", "CLASS_NAME": "rule met"}
{"COMPOUND": "CC(C)(CN1CCOCC1)NC(=O)c1[nH]cnc1C(=O)Nc1ccc(NC(=O)c2ccc(F)cc2Cl)cc1 [Example 207]", "CLASS_NAME": "rule not met"}
